- experimentalTarget: IRAK4 (Homo sapiens (Human))
- Sequence (Q9NWZ3 whole entry, species assumed): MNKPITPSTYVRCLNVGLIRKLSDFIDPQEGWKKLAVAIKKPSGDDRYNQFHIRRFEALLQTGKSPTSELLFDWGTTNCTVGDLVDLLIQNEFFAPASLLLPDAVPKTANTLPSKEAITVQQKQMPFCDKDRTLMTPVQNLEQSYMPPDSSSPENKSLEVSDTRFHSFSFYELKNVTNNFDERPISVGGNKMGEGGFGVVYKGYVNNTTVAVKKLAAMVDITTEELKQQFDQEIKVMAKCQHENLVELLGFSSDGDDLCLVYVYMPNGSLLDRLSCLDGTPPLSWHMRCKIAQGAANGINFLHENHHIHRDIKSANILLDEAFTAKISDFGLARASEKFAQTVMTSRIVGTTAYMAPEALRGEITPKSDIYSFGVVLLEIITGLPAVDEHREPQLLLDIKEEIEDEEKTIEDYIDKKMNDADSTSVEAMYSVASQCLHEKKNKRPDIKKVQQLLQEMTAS
Classify: Y when IC50 is strictly less than 30 nM; N when IC50 is not.

[[record]]
compound = "CC(C)Nc1cc(-n2ncc3cc(C#N)cnc32)ncc1-c1cn(-c2ccccc2)nn1 [Example 115]"
labelclass = "N"

[[record]]
compound = "CC(C)Nc1cc(-n2ncc3cc(C#N)cnc32)ncc1-c1cc(C(CO)CO)no1 [Example 399]"
labelclass = "Y"

[[record]]
compound = "CCNc1cc(-n2cnc3cc(C#N)cnc32)ncc1-c1cn(C[C@H](C)O)nn1 [Example 72]"
labelclass = "N"


Confirm or reject: IC50 of CCCc1cn(-c2cnc(-n3ncc4cc(C#N)cnc43)cc2N[C@@H](C)CO)nn1 [Example 273] lies strictly below 30 nM
N

Confirm or reject: IC50 of CC(C)Nc1cc(-n2ncc3cc(C#N)cnc32)ncc1-c1cn(C2CCCCC2)nn1 [Example 17] lies strictly below 30 nM
Y

Confirm or reject: IC50 of CC(C)Nc1cc(-n2ncc3cc(C#N)cnc32)ncc1-n1cc(CCc2ccccc2)nn1 [Example 319] lies strictly below 30 nM
Y

Confirm or reject: IC50 of CC(C)Nc1cc(-n2ncc3cc(C#N)cnc32)ncc1-c1cn(CC2(O)CCN(C(=O)OC(C)(C)C)CC2)nn1 [Example 132] lies strictly below 30 nM
N

Cited source: patent US10294229B2
